Numbers sourced from paper PMC2997884.

- test-details: Hydrolysis in pH 7.4 HEPES buffer
- Assay type: physicochemical
- measurement-setup: HEPES buffer, pH 7.4
property: half-life (min)
Value expressed in min; do not type the unit.

// returns reported half-life for input `CC(C)[C@H](N)C(=O)OCCOCn1cnc2c(=O)[nH]c(N)nc21`
742
